assay: Pharmacokinetics: BGJ398 plasma concentrations; format: in vivo, human; conditions: human, plasma, oral, Median time to reach maximum plasma concentration, after a single dose
MEASURED_ATTRIBUTE: Tmax

Inquiry: What value of measured Tmax is listed for CCN1CCN(c2ccc(Nc3cc(N(C)C(=O)Nc4c(Cl)c(OC)cc(OC)c4Cl)ncn3)cc2)CC1 ?
Reply text: 2 to 3 h
